Cited source: patent US20260242735A1

Hi there, I'd appreciate the recorded Mean % WT Binding for every entry that follows.
molecular target: human CD33 E170A (human, UniProt P20138 18-364); assay: alanine scan, flow cytometry, HEK293-T;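 note: antibody binding to each alanine-substituted CD33 mutant expressed transiently in HEK293-T, read as fluorescence minus background, mean of duplicates, relative to wild-type CD33 set as 100%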
Sequence (P20138 18-364 E170A limits assumed): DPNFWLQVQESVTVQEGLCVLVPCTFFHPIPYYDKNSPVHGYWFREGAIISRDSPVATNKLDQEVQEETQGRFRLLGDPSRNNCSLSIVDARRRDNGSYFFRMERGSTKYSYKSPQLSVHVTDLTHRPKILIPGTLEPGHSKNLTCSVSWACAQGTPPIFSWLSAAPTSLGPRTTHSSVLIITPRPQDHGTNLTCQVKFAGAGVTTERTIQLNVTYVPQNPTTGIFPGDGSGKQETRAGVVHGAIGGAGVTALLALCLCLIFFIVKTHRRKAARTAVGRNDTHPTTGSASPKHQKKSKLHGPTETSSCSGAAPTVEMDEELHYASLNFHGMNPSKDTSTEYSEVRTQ
Numbers only, in %.

binder | Mean % WT Binding (%)
Refmab #1 (antibody, V domains shown, In the alanine scan antibodies were used as IgG or Fab; also called hP67.6) VH: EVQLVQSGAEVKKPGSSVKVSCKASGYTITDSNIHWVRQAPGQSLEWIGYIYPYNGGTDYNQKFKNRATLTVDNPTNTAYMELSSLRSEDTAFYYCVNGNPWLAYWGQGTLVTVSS VL: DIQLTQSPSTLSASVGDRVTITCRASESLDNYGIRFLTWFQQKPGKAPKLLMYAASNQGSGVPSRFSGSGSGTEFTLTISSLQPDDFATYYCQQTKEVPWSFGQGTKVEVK | 90.9
Refmab #4 (antibody, V domains shown, In the alanine scan antibodies were used as IgG or Fab) VH: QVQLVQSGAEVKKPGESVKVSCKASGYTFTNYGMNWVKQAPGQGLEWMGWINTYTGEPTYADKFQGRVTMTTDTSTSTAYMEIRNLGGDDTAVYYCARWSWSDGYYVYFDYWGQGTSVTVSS VL: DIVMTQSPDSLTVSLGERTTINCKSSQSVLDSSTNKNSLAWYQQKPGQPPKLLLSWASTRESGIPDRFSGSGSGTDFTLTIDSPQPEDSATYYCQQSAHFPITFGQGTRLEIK | 95.5
Refmab #3 (antibody, V domains shown, In the alanine scan antibodies were used as IgG or Fab) VH: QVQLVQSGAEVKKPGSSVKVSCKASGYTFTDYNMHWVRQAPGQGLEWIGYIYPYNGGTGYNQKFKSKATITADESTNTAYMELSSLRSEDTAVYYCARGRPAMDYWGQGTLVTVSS VL: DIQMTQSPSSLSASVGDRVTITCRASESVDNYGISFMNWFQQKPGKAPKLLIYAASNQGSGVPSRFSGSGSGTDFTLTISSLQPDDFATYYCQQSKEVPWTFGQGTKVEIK | 148

Kindly review the next binder as well.
Task: GET /values?readout=Mean % WT Binding&item= Refmab #2 (antibody, V domains shown, In the alanine scan antibodies were used as IgG or Fab) VH: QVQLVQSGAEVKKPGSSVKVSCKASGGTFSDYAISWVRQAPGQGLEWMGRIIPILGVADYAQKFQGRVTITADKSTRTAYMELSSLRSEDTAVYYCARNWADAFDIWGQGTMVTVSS VL: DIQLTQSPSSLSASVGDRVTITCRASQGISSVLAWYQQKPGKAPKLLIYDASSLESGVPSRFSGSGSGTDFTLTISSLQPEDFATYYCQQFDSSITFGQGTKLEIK
Output: 123
